Assay: Fade rate (T 1/2) of naphthopyran imbibed into polymerizate after UV activation
Type: physicochemical
Settings: At Room Temperature; imbibed in poly[diethylene glycol bis(allyl carbonate)]; UV 365 nm lamp
Rule: Fade Rate T 1/2 under 2 min gives 0 (no), otherwise 1 (yes).

> print(dat)
                                   compound  grouplabel
1  O=C(Oc1cc2ccccc2c2c1OC(c1ccccc1)(c1ccccc1)C=C2)c1ccccc1     1 (yes)
2  C1=CC(c2ccccc2)(c2ccccc2)Oc2c(Oc3ccccn3)cc3ccccc3c21      0 (no)
3  CC(=O)COc1cc2ccccc2c2c1OC(c1ccccc1)(c1ccccc1)C=C2      0 (no)
4  CC(=O)Oc1cc2ccccc2c2c1OC(c1ccc(C)cc1)(c1ccc(C)cc1)C=C2     1 (yes)
5  Cc1ccc(C2(c3ccc(C)cc3)C=Cc3c(c(OC(=O)CCl)cc4ccccc34)O2)cc1      0 (no)
6  COc1ccc(C2(c3ccccc3)C=Cc3c(c(OC(C)=O)cc4ccccc34)O2)cc1 (stereo not drawn)      0 (no)

* * *

Assay: Absorption maximum of naphthopyran imbibed into polymerizate
Format: physicochemical
Conditions: imbibed in poly[diethylene glycol bis(allyl carbonate)]; UV 365 nm lamp
valueKind: Absorption λ Max

> print(dat)
                                   compound  reported
1  CC(=O)Oc1cc2ccccc2c2c1OC(c1ccc(C)cc1)(c1ccc(C)cc1)C=C2    470 NM
2  COc1ccc(C2(c3ccccc3)C=Cc3c(c(OC(C)=O)cc4ccccc34)O2)cc1 (centres unmarked)    483 NM
3  O=C(Oc1cc2ccccc2c2c1OC(c1ccccc1)(c1ccccc1)C=C2)c1ccccc1    447 NM
4  Cc1ccc(C2(c3ccc(C)cc3)C=Cc3c(c(OC(=O)CCl)cc4ccccc34)O2)cc1    476 NM
5  COc1ccc(C2(c3ccccc3)C=Cc3c(c(OC(=O)c4ccccc4)cc4ccccc34)O2)cc1 (centres unmarked)    483 NM

* * *

Experiment: Absorption maximum of naphthopyran imbibed into polymerizate
Assay type: physicochemical
Settings: imbibed in poly[diethylene glycol bis(allyl carbonate)]; UV 365 nm lamp
valueKind: Absorption λ Max

> print(dat)
                                   compound  reported
1  C1=CC(c2ccccc2)(c2ccccc2)Oc2c(Oc3ccccn3)cc3ccccc3c21 [Example 2]    440 NM
2  O=C(CCl)Oc1cc2ccccc2c2c1OC(c1ccccc1)(c1ccccc1)C=C2 [Example 10]    458 NM
3  CC(=O)Oc1cc2ccccc2c2c1OC(c1ccccc1)(c1ccccc1)C=C2 [Example 1]    455 NM
4  CC(=O)COc1cc2ccccc2c2c1OC(c1ccccc1)(c1ccccc1)C=C2 [Example 8]    434 NM
5  CNC(=O)Oc1cc2ccccc2c2c1OC(c1ccccc1)(c1ccccc1)C=C2 [Example 6]    446 NM

* * *

Assay: Fade rate (T 1/2) of naphthopyran imbibed into polymerizate after UV activation
Format: physicochemical
Details: At Room Temperature; imbibed in poly[diethylene glycol bis(allyl carbonate)]; UV 365 nm lamp
valueKind: Fade Rate T 1/2 (min)

> print(dat)
                                   compound  reported
1  O=C(CCl)Oc1cc2ccccc2c2c1OC(c1ccccc1)(c1ccccc1)C=C2       1.6
2  CC(=O)Oc1cc2ccccc2c2c1OC(c1ccccc1)(c1ccccc1)C=C2      1.35
3  COc1ccc(C2(c3ccccc3)C=Cc3c(c(OC(=O)c4ccccc4)cc4ccccc34)O2)cc1 (stereo not shown)       3.5
4  CNC(=O)Oc1cc2ccccc2c2c1OC(c1ccccc1)(c1ccccc1)C=C2      1.67

Numbers sourced from patent US5244602A.
